# α-rat koff listing for each entry below
Biological target: T1, rat α-CGRP (Rattus norvegicus, UniProt P01256)
T1 construct: rat α (1-37); purchased GenScript Corporation or Global Peptide Services
T1 sequence (P01256 83-119 limits assumed): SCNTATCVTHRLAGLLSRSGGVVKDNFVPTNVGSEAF
Test: Biacore SPR affinity of Fab fragments to N-biotinylated rat α-CGRP on SA chip
Format: binding
Conditions: 37° C., screening mode except underlined values
Please state the figure in s⁻¹; there is no need to write the unit.

// below: answered molecules
INSERT INTO measurements (molecule, observable, experimental_result) VALUES
  ('M40: G1 variant; L1 R28N; L2 G50A L56T; H2 E54K A57L; HC-FW3 L99T A100V (antibody, V domains shown) VH: EVQLVESGGGLVQPGGSLRLSCAASGFTFSNYWISWVRQAPGKGLEWVAEIRSKSDLSATHYAEAVKGRFTISRDNAKNSLYLQMNSLRAEDTAVYYCTVYFDYGLAIQNYWGQGTLVTVSS VL: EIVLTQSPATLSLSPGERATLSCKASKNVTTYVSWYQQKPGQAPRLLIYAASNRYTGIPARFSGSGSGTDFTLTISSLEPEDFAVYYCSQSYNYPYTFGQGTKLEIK', 'α-rat koff', 0.36),
  ('M49: G1 variant; L1 R28N; L2 G50A L56T; H2 E54K A57N S58Y H61F; HC-FW3 L99T A100V (antibody, V domains shown) VH: EVQLVESGGGLVQPGGSLRLSCAASGFTFSNYWISWVRQAPGKGLEWVAEIRSKSDNYATFYAEAVKGRFTISRDNAKNSLYLQMNSLRAEDTAVYYCTVYFDYGLAIQNYWGQGTLVTVSS VL: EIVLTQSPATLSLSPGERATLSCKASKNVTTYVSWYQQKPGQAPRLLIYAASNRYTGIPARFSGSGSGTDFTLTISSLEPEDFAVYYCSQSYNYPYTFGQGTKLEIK', 'α-rat koff', 0.0148),
  ('M27: G1 variant; L1 R28N T30A; HC-FW3 L99T A100V (antibody, V domains shown) VH: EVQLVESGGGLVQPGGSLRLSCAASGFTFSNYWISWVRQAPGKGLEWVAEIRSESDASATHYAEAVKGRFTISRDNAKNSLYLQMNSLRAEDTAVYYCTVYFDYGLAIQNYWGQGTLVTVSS VL: EIVLTQSPATLSLSPGERATLSCKASKNVATYVSWYQQKPGQAPRLLIYGASNRYLGIPARFSGSGSGTDFTLTISSLEPEDFAVYYCSQSYNYPYTFGQGTKLEIK', 'α-rat koff', 0.00341);

Moving on to the next molecule.
Lookup: # α-rat koff lookup, item M50: G1 variant; L1 R28N; L2 G50A L56T; H2 E54K A57R; HC-FW3 L99T A100V (antibody, V domains shown) VH: EVQLVESGGGLVQPGGSLRLSCAASGFTFSNYWISWVRQAPGKGLEWVAEIRSKSDRSATHYAEAVKGRFTISRDNAKNSLYLQMNSLRAEDTAVYYCTVYFDYGLAIQNYWGQGTLVTVSS VL: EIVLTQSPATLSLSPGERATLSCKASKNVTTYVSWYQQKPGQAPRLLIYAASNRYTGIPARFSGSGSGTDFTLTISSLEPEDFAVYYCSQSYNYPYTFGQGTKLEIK
Found: 0.0053
